From: patent US7566718B2

biological target: human CXCR3 (N-delta 4) (Homo sapiens, UniProt P49682); construct: CD8 leader (N); Flag tag; expressed in transfected cells; membrane preparation; experiment: Human CXCR3 (N-delta 4) scintillation proximity assay (SPA), [125I] IP-10 binding to Ba/F3-hCXCR3 membranes; conditions: IC50 rating; [125I] IP-10 displacement, human CXCR3; read-out: IC50
Sequence (P49682 5-368 limits assumed): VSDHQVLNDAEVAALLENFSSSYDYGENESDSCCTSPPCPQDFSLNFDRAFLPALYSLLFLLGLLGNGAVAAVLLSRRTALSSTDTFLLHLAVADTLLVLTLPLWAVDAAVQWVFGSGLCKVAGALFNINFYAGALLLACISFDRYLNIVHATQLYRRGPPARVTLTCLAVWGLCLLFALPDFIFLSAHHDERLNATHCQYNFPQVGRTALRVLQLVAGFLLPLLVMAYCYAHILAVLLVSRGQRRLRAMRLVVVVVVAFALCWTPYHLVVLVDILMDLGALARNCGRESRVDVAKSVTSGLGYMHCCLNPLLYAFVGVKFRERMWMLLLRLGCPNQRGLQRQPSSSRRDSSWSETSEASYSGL
Assign IC50 to each entry below.

The examples below pair each entry with its known result.
CCC(=O)[C@@H](c1ccc(Cl)cc1)N1CCC(N2CCN(c3ncc(NS(N)(=O)=O)cc3Cl)C[C@@H]2CC)CC1	> 100 nM
CC[C@H]1CN(c2ncc(NC3=NS(=O)(=O)N=C3NC)cc2Cl)CCN1C1CCN(Cc2ccc(Cl)cc2C(=N)NO)CC1	< 25 nM
CC[C@H]1CN(c2ncc(NS(C)(=O)=O)cc2Cl)CCN1C1CCN(Cc2ccc(Br)cc2OC)CC1	> 100 nM
CC[C@H]1CN(c2ncc(NC3=NS(=O)(=O)N=C3N3CCOCC3)cc2Cl)CCN1C1CCN(Cc2ccc(F)c(F)c2)CC1	> 100 nM
C[C@@H]1CN(c2ncc(Nc3c(NCC(F)(F)F)c(=O)c3=O)cc2Cl)[C@@H](C)CN1C1CCN(Cc2ccc(-c3ccccc3)cc2)CC1	> 100 nM

Items follow; give IC50 for each.
1. CC[C@H]1CN(c2ncc(NC3=NS(=O)(=O)N=C3NC3CC3)cc2Cl)CCN1C1CCN(Cc2ccc(Cl)cc2-c2ncon2)CC1
2. CC[C@H]1CN(c2ncc(NC(=O)C3CC3)cc2Cl)CCN1C1CCN(Cc2ccc(Cl)cc2F)CC1
3. C[C@@H]1CN(c2ncc(Nc3c(NCC(F)(F)F)c(=O)c3=O)cc2Cl)[C@@H](C)CN1C1CCN(CCCC2CCCCC2)CC1
4. CC[C@H]1CN(c2ncc(NS(=O)(=O)CC)cc2Cl)CCN1C1CCN(C(N)c2ccc(Cl)cc2F)CC1 (some centres unmarked)
5. CC[C@H]1CN(c2ncc(NC3=NS(=O)(=O)N=C3NC[C@H](C)O)cc2Cl)CCN1C1CCN(Cc2ccc(Cl)cc2F)CC1
6. CC[C@H]1CN(c2cc(N)c([N+](=O)[O-])cc2Cl)CCN1C1CCN(Cc2ccc(Cl)cc2F)CC1

["< 25 nM", "< 25 nM", "> 100 nM", "< 25 nM", "< 25 nM", "> 100 nM"]

Items follow; give IC50 for each.
1. CC[C@H]1CN(c2ncc(Nc3c(N)c(=O)c3=O)cc2Cl)CCN1C1CCN(Cc2ccc(Cl)cc2F)CC1
2. C[C@@H]1CN(C2CCN(Cc3ccc(Cl)cc3F)CC2)[C@@H](C)CN1c1ncc(Nc2c(NC3CC3)c(=O)c2=O)cc1Cl
3. CC[C@H]1CN(c2ncc(Nc3c(OC)c(=O)c3=O)cc2Cl)CCN1C1CCN(Cc2ccc(Cl)cc2F)CC1
4. Cc1cc(Nc2c(NCC(F)(F)F)c(=O)c2=O)cnc1N1C[C@@H](C)N(C2CCN(C(=O)C3CCc4ccccc4C3)CC2)C[C@@H]1C (some centres unmarked)

["< 25 nM", "< 25 nM", "25 to 100 nM", "> 100 nM"]

Items follow; give IC50 for each.
1. CC[C@H]1CN(c2ncc(Nc3c(NC4CCC4)c(=O)c3=O)cc2Cl)CCN1C1CCN(Cc2ccc(Cl)cc2)CC1
2. CC[C@H]1CN(c2ncc(NC3=NS(=O)(=O)N=C3NCC(C)(C)C)cc2Cl)CCN1C1CCN(Cc2ccc(Cl)cc2C#N)CC1

< 25 nM
> 100 nM
